Reported TGI by item:
- Test system: DMS 273 small cell lung
- ASSAY: NCI tumour cell line growth inhibition, 48 h
MEASURED_ATTRIBUTE: TGI (µM)

[[record]]
smiles_entry = "O=C(O)c1cc(S(=O)(=O)N=NC=C2c3ccccc3N(O)c3ccccc32)ccc1O"
rel = "="
meas_value = 34.6

[[record]]
smiles_entry = "COc1ccc(/C=C(/C(=O)O)c2cc(OC)c(OC)c(OC)c2)cc1"
rel = ">"
meas_value = 100

[[record]]
smiles_entry = "CC(=O)Nc1ccc(Cl)c(Cl)c1"
rel = ">"
meas_value = 100

[[record]]
smiles_entry = "Cc1c(C(=O)/C=C/c2cccc3ccccc23)[n+](=O)c2ccccc2n1[O-]"
rel = "="
meas_value = 24.5

[[record]]
smiles_entry = "CN(C)c1ccc(/C=C2\\C[N+](C)(C)C/C(=C\\c3ccc(N(C)C)cc3)C2=O)cc1"
rel = "="
meas_value = 18.5

